- procedure_details: in vitro
- run_conditions: human, hela cells, % viability
true if viability at 28.5 h, 10 µM is below 90%. false if not; exact matches included in false.

is_below(viability at 28.5 h, 10 µM, 90%) for COCC1CCCN(Cc2ccc(Br)cc2)C1 (centres unmarked) [CBK304624] ?
false

Could you please tell me whether viability at 28.5 h, 10 µM recorded for COCCN(C(=O)c1nc2cccnc2s1)C1CCS(=O)(=O)C1 (centres unmarked) [CBK304091] is less than 90%?
false

I'd appreciate it if you could check whether O=S(=O)(Nc1cnc2ccccc2c1)c1cccs1 [CBK043694] has viability at 28.5 h, 10 µM smaller than 90%.
true

----------
- procedure_details: in vitro
- run_conditions: human, hela cells, % viability
measurement_name: viability at 28.5 h, 10 µM (%)
Value expressed in %; do not type the unit.

# query: viability at 28.5 h, 10 µM of entry C=CCNC(=O)[C@H]1C=CCN1S(=O)(=O)c1ccc(F)cc1
83.5

Need viability at 28.5 h, 10 µM, item O=C(CSc1nc2ccccc2c(=O)n1-c1ccc(F)cc1)Nc1ccc(C(=O)O)cc1
96

Need viability at 28.5 h, 10 µM, item CCn1c(SCc2nc(-c3ccc(Br)cc3)no2)nnc1-c1c[nH]c2ccccc12
94.3

// returns reported viability at 28.5 h, 10 µM for input CCNC(=O)N1CCc2c([nH]c3ccc(OC)cc23)C12CCN(CCOc1ccccc1)C2 (stereo not drawn)
93

Request the reported viability at 28.5 h, 10 µM associated with FC(F)(F)c1cccc(CN2CCC(N3CCCCC3)CC2)c1
90.1

Need viability at 28.5 h, 10 µM, item COc1ccc(CN(/N=N/c2nonc2C)c2nonc2C)cc1[N+](=O)[O-]
99.3

Endpoint output: viability at 28.5 h, 10 µM of CCc1[nH]c(=O)c(C(=O)N2CCc3[nH]c4c(C)cccc4c3C2)cc1C . Value?
97.6

GET /values?readout=viability at 28.5 h, 10 µM&item= O=C(O)COc1cccc2ccccc12
106

What does the data say about its viability at 28.5 h, 10 µM? Entry: CC1=C[C@@H](CNC(=O)NC(C)C)[C@H](C(C)C)C[C@H]1CC(=O)N1CCN(C)CC1
100

----------
Consider the following molecules; for each one, report its viability at 28.5 h, 10 µM.
- procedure_details: in vitro
- run_conditions: human, hela cells, % viability
The response must be a number in % with no trailing unit.

Recorded viability at 28.5 h, 10 µM for O=C(C1=C(O)C(=O)N(CCCn2ccnc2)C1c1ccc(Br)cc1)c1ccc2c(c1)OCCO2 (centres unmarked) [CBK266081] , please?
104

Entry CC(=O)Nc1cccc(Oc2nccnc2-c2cc3ccccc3s2)c1 [CBK106784] : reported viability at 28.5 h, 10 µM = ?
101

Name the recorded viability at 28.5 h, 10 µM for CN1CCC(=NNC(=O)c2cc(O)c(O)c(O)c2)CC1 [CBK262660] .
78.6

Would you mind telling me what viability at 28.5 h, 10 µM value was observed for CCCCCn1c(Cc2ccccc2)n[nH]c1=O [CBK013059] ?
98.3

Value lookup for viability at 28.5 h, 10 µM; key = Fc1ccc(COc2ccc(Cl)cc2CNCc2ccccn2)cc1 [CBK269899C]
85.5

Please give the measured viability at 28.5 h, 10 µM for this molecule: CCN(CC)C(=O)CN1CCN(c2nccnc2OCCN2C(=O)CCC2=O)CC1 [CBK084297]
102

I have this molecule here, CC(Oc1cccc(C#N)c1)C(=O)NCC1(N2CCOCC2)CCSC1 (centres unmarked) [CBK305780] , and I need its recorded viability at 28.5 h, 10 µM.
94.8

Fill in: viability at 28.5 h, 10 µM of CC(C)[C@H](CO)Nc1nccnc1-c1cccc(O)c1 [CBK037542] is ___
96.1

Returns the measured viability at 28.5 h, 10 µM for the input molecule. Input: CN(C)C(=O)CN1CC[C@@H](c2ccccc2)[C@H](O)C1 [CBK283979]
83

Given the entry Cc1noc(C)c1NC(=O)c1ccc2ccccc2n1 [CBK200309] , report its measured viability at 28.5 h, 10 µM.
101

Endpoint output: viability at 28.5 h, 10 µM of O=C(Nc1cccnc1)c1cc2cc(OC(F)(F)F)ccc2[nH]1 [CBK107313] . Value?
95.1

Given the molecule O=C(NCCc1ccccc1)c1ncoc1-c1cccs1 [CBK283662] , what is its reported viability at 28.5 h, 10 µM?
91.8

Reported viability at 28.5 h, 10 µM for C/C(=N\NC(=N)SC1CC(=O)N(c2ccc(C(=O)O)cc2)C1=O)c1cccs1 (centres unmarked) [CBK262471] : what is it?
103

Given O=C(CCOc1ccc(F)cc1)Nc1cnc(-c2ccc(F)cc2)c(-c2ccoc2)n1 [CBK037166] , state its recorded viability at 28.5 h, 10 µM.
91.9

viability at 28.5 h, 10 µM for COc1cc(C(=O)NCc2c(-c3ccccc3)noc2C)cc(OC)c1OC [CBK144097] ?
93.9

Look at this molecule and give its reported viability at 28.5 h, 10 µM. O=C(NCc1cccs1)C1(Cc2ccccc2-c2coc3ccccc23)CCOCC1 [CBK286310]
108

Could you share which viability at 28.5 h, 10 µM value was measured for Cc1cc(COc2ccnc(N3CCCN(CC(N)=O)CC3)n2)no1 [CBK084036] ?
85.9

Which value of viability at 28.5 h, 10 µM has been reported for Cc1cc2cc(C(=O)NCCCN3Cc4ccccc4C3)ccc2o1 [CBK282624] in the records?
97.4

Reported viability at 28.5 h, 10 µM, molecule Cc1cccc(-c2ccc(CC3(C(N)=O)CCN(C(=O)COc4ccccc4)CC3)cc2)c1 [CBK285797] : ____
93.6

Entry under review: Oc1c(C(Nc2cccnc2)c2cccs2)ccc2cccnc12 (centres unmarked) [CBK268637] . Reported viability at 28.5 h, 10 µM?
72.4

Entry source: paper PMC12040169
